- protocolNotes: Half-life in male Sprague-Dawley rat at 60 mg/kg, po measured after 24 hrs by LC-MS/MS analysis
- Type: ADME, organism-based
- conditionInfo: in vivo
resultType: half-life (h)

{"chemicalString": "CCn1c(-c2cc(N3CCN(C)CC3)cnc2[C@H](C)OC)c2c3cc(ccc31)-c1csc(n1)C[C@H](NC(=O)[C@H]1C[C@@H]1C)C(=O)N1CCC[C@H](N1)C(=O)OCC(C)(C)C2", "measuredNumber": 2.8}

----------
- protocolNotes: Kinetic solubility of compound in PBS at pH 5.0 measured after 5 hrs by UV analysis
- Assay type: physicochemical
- conditionInfo: read-out: Kinetic_solubility
resultType: solubility kinetic at 5 h

{"chemicalString": "CCn1c(-c2cc(N3CCN(C)CC3)cnc2[C@H](C)OC)c2c3cc(ccc31)-c1csc(n1)C[C@H](NC(=O)[C@H]1C[C@@H]1C)C(=O)N1CCC[C@H](N1)C(=O)OCC(C)(C)C2", "result": "> 100 µM"}
{"chemicalString": "CCn1c(-c2cccnc2[C@H](C)OC)c2c3cc(ccc31)-c1csc(n1)C[C@H](NC(=O)[C@H]1C[C@@H]1C)C(=O)N1CCC[C@H](N1)C(=O)OCC(C)(C)C2", "result": "< 2 µM"}

----------
- protocolNotes: Apparent permeability across apical to basolateral side in human Caco-2 cells at 5 uM incubated for 2 hrs by LC-MS/MS analysis
- Assay type: ADME, cell-based
Listing of recorded Papp A→B at 2 h, 5 µM by entry.

{"chemicalString": "CCn1c(-c2cc(N3CCN(C4CC4)CC3)cnc2[C@H](C)OC)c2c3cc(ccc31)-c1csc(n1)C[C@H](NC(=O)[C@H]1C[C@@H]1C)C(=O)N1CCC[C@H](N1)C(=O)OCC(C)(C)C2", "Papp A→B at 2 h, 5 µM, ×10⁻⁶ cm/s": 2.2}
{"chemicalString": "CCn1c(-c2cccnc2[C@H](C)OC)c2c3cc(ccc31)-c1csc(n1)C[C@H](NC(=O)[C@H](C(C)C)N(C)C(=O)N(C)C)C(=O)N1CCC[C@H](N1)C(=O)OCC(C)(C)C2", "Papp A→B at 2 h, 5 µM, ×10⁻⁶ cm/s": 0.94}
{"chemicalString": "CCn1c(-c2cccnc2[C@H](C)OC)c2c3cc(ccc31)-c1csc(n1)C[C@H](NC(=O)[C@H]1[C@@H]3COC[C@@H]31)C(=O)N1CCC[C@H](N1)C(=O)OCC(C)(C)C2", "Papp A→B at 2 h, 5 µM, ×10⁻⁶ cm/s": 2.3}
{"chemicalString": "CCn1c(-c2cc(N3CCN(CCOC)CC3)cnc2[C@H](C)OC)c2c3cc(ccc31)-c1csc(n1)C[C@H](NC(=O)[C@H]1C[C@@H]1C)C(=O)N1CCC[C@H](N1)C(=O)OCC(C)(C)C2", "Papp A→B at 2 h, 5 µM, ×10⁻⁶ cm/s": 1}
{"chemicalString": "CCn1c(-c2cccnc2[C@H](C)OC)c2c3cc(ccc31)-c1csc(n1)C[C@H](NC(=O)[C@H]1C[C@@H]1C)C(=O)N1CCC[C@H](N1)C(=O)OCC(C)(C)C2", "Papp A→B at 2 h, 5 µM, ×10⁻⁶ cm/s": 10.7}

----------
- protocolNotes: Tmax in male Beagle dog at 5 mg/kg, po measured after 24 hrs by LC-MS/MS analysis
- Assay type: ADME, organism-based, Canis lupus familiaris
- conditionInfo: in vivo

{"chemicalString": "CCn1c(-c2cc(N3CCN(C)CC3)cnc2[C@H](C)OC)c2c3cc(ccc31)-c1csc(n1)C[C@H](NC(=O)[C@H]1C[C@@H]1C)C(=O)N1CCC[C@H](N1)C(=O)OCC(C)(C)C2", "measurementUnits": "min", "Tmax": 42}

----------
- protocolNotes: Clearance in male Sprague-Dawley rat at 1 mg/kg, iv measured after 24 hrs by LC-MS/MS analysis
- Format: ADME, organism-based
- conditionInfo: in vivo
resultType: clearance

{"chemicalString": "CCn1c(-c2cc(N3CCN(C)CC3)cnc2[C@H](C)OC)c2c3cc(ccc31)-c1csc(n1)C[C@H](NC(=O)[C@H]1C[C@@H]1C)C(=O)N1CCC[C@H](N1)C(=O)OCC(C)(C)C2", "result": "21.7 mL/min/kg"}

----------
- protocolNotes: Oral bioavailability in female BALB/c mouse at 10 mg/kg measured after 24 hrs by LC-MS/MS analysis
- Assay type: ADME, organism-based
- conditionInfo: in vivo
Listing of recorded bioavailability by entry.
resultType: bioavailability (%)

{"chemicalString": "CCn1c(-c2cccnc2[C@H](C)OC)c2c3cc(ccc31)-c1csc(n1)C[C@H](NC(=O)[C@H]1CCO1)C(=O)N1CCC[C@H](N1)C(=O)OCC(C)(C)C2", "resultType": "bioavailability", "measurementUnits": "%", "relationSymbol": "=", "measuredNumber": 44}
{"chemicalString": "CCn1c(-c2cccnc2[C@H](C)OC)c2c3cc(ccc31)-c1csc(n1)C[C@H](NC(=O)C1CC1)C(=O)N1CCC[C@H](N1)C(=O)OCC(C)(C)C2", "resultType": "bioavailability", "measurementUnits": "%", "relationSymbol": "=", "measuredNumber": 53}
{"chemicalString": "CCn1c(-c2cccnc2[C@H](C)OC)c2c3cc(ccc31)-c1csc(n1)C[C@H](NC(=O)[C@H](C(C)C)N(C)C(=O)N1CCC1)C(=O)N1CCC[C@H](N1)C(=O)OCC(C)(C)C2", "resultType": "bioavailability", "measurementUnits": "%", "relationSymbol": "=", "measuredNumber": 2.2}
{"chemicalString": "CCn1c(-c2cccnc2[C@H](C)OC)c2c3cc(ccc31)-c1csc(n1)C[C@H](NC(=O)[C@H](C(C)C)N(C)C(C)=O)C(=O)N1CCC[C@H](N1)C(=O)OCC(C)(C)C2", "resultType": "bioavailability", "measurementUnits": "%", "relationSymbol": "≤", "measuredNumber": 0.4}
{"chemicalString": "CCn1c(-c2cccnc2[C@H](C)OC)c2c3cc(ccc31)-c1csc(n1)C[C@H](NC(=O)[C@H](C(C)C)N(C)C(=O)N1CC(OC)C1)C(=O)N1CCC[C@H](N1)C(=O)OCC(C)(C)C2", "resultType": "bioavailability", "measurementUnits": "%", "relationSymbol": "=", "measuredNumber": 17}

----------
- protocolNotes: Ratio of drug concentration in mouse blood to plasma at 0.1 uM measured upto 120 mins by LC-MS/MS analysis
- Assay type: ADME, cell-free

{"chemicalString": "CCn1c(-c2cc(N3CCN(C)CC3)cnc2[C@H](C)OC)c2c3cc(ccc31)-c1csc(n1)C[C@H](NC(=O)[C@H]1C[C@@H]1C)C(=O)N1CCC[C@H](N1)C(=O)OCC(C)(C)C2", "blood plasma ratio at 2 h, 0.1 µM": 4.2}

----------
- protocolNotes: Volume of distribution at steady state in female BALB/c mouse at 1 mg/kg, iv measured after 24 hrs by LC-MS/MS analysis
- Format: ADME, organism-based
- conditionInfo: in vivo, read-out: Vdss

{"chemicalString": "CCn1c(-c2cc(N3CCN(C)CC3)cnc2[C@H](C)OC)c2c3cc(ccc31)-c1csc(n1)C[C@H](NC(=O)[C@H]1C[C@@H]1C)C(=O)N1CCC[C@H](N1)C(=O)OCC(C)(C)C2", "measurementUnits": "L/kg", "Vd": 1.3}

----------
- protocolNotes: Inhibition of 6His-tagged wildtype HRAS (1 to 169 residues)/GST-tagged GMPPNP-bound BRAF RBD (155 to 229 reisudes)/Cyclophilin A (unknown origin) tri-complex protein-protein interaction incubated for 3 hrs by TR-FERT based disruption assay
- Set-up: species or system Homo sapiens

{"chemicalString": "CCn1c(-c2cccnc2[C@H](C)OC)c2c3cc(ccc31)-c1cccc(c1)C[C@H](NC(=O)[C@H](C(C)C)N(C)C(=O)[C@H]1CCN(C(C)=O)C1)C(=O)N1CCC[C@H](N1)C(=O)OCC(C)(C)C2", "IC50, µM": 3.5}

Provenance of the data: ChEMBL document CHEMBL6115029
